system name: 5-hydroxytryptamine receptor 1A (Homo sapiens)
Sequence (whole entry): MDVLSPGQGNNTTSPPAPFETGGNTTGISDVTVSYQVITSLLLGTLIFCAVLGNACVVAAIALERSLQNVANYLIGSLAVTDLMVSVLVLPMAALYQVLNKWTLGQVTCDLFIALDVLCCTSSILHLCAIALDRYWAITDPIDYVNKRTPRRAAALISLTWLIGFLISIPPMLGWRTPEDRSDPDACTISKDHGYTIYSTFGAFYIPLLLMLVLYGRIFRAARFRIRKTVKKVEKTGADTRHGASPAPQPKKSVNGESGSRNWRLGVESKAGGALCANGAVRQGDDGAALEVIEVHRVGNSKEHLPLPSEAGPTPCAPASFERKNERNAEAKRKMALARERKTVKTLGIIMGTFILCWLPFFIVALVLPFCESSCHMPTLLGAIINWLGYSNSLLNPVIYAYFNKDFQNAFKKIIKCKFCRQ
procedure summary: Potency (pD2) for the stimulation of [35S]GTP-gamma-S, binding on 5-hydroxytryptamine 1A receptor
Format: functional
Answer each item with its documented pD2.
Form: value (number only, do not type unit).

Return reported pD2. Input molecule: COc1cccc2c1CCCC2CCCNCCOc1ccccn1 (configuration not stated) 10.2

Return reported pD2. Input molecule: COc1cccc(C2CCC(NCCOc3ccccn3)CC2)c1 (stereo in doubt) 7.46

Return reported pD2. Input molecule: COc1cccc2c(CCCN3CCN(c4ccccn4)CC3)cccc12 7.87

Return reported pD2. Input molecule: COc1cccc(C2CCC(N3CCN(c4ccccc4OC)CC3)CC2)c1 (stereo in doubt; trans) 9.91

Return reported pD2. Input molecule: COc1cccc2c1CCCC2CCCN1CCN(c2ccccn2)CC1 (configuration not stated) 10.2

Return reported pD2. Input molecule: COc1cccc2c(CCCNCCOc3ccccn3)cccc12 8.2

Return reported pD2. Input molecule: COc1cccc(C2CCC(N3CCN(c4ccccn4)CC3)CC2)c1 (trans isomer) 9.28

* * *

Protein target, amino acids: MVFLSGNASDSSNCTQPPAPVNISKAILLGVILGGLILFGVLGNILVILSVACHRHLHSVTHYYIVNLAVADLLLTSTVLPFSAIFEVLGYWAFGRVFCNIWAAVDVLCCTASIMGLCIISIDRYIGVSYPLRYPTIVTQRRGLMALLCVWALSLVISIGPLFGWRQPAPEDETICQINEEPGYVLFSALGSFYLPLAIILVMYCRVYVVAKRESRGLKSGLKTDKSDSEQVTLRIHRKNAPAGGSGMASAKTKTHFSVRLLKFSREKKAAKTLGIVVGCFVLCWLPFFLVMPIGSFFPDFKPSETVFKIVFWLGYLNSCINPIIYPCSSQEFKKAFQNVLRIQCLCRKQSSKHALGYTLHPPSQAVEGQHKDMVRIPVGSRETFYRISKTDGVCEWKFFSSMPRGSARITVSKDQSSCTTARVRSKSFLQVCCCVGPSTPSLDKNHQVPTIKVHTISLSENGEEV
property measured: Ki
Write the numeric value and append its unit.

Return reported Ki. Input molecule: COc1cccc(C2CCC(N3CCN(c4ccccc4OC)CC3)CC2)c1 (stereo in doubt; trans) 4.98 nM

* * *

Answer each item with its documented Ki.
system name: Adrenergic receptor alpha-1 (Rattus norvegicus, UniProt P15823+P23944+P43140)
procedure summary: Binding affinity towards alpha-1 adrenergic receptor in rat cortical membranes
Assay type: cell membranes
Hi! Could you send only the number? It should be in nM, unit omitted.

Answer with Ki of COc1cccc(C2CCC(N3CCN(c4cccc5ccccc45)CC3)CC2)c1 (trans isomer) measured for Adrenergic receptor alpha-1 (Rattus norvegicus, UniProt P15823+P23944+P43140). 470

Answer with Ki of COc1cccc2c1CCCC2CCCN1CCN(c2ccccn2)CC1 (stereo not drawn) measured for Adrenergic receptor alpha-1 (Rattus norvegicus, UniProt P15823+P23944+P43140). 55

Answer with Ki of COc1cccc(C2CCC(N3CCN(c4ccccc4OC)CC3)CC2)c1 (stereo in doubt; trans) measured for Adrenergic receptor alpha-1 (Rattus norvegicus, UniProt P15823+P23944+P43140). 312

Answer with Ki of COc1cccc(C2=CCC(N3CCN(c4ccccn4)CC3)CC2)c1 (stereo not drawn) measured for Adrenergic receptor alpha-1 (Rattus norvegicus, UniProt P15823+P23944+P43140). 512

Answer with Ki of COc1ccccc1C1CCC(N2CCN(c3ccccn3)CC2)CC1 (stereo in doubt; trans) measured for Adrenergic receptor alpha-1 (Rattus norvegicus, UniProt P15823+P23944+P43140). 303

Answer with Ki of COc1cccc(C2CCC(N3CCN(c4ccccn4)CC3)CC2)c1 (trans isomer) measured for Adrenergic receptor alpha-1 (Rattus norvegicus, UniProt P15823+P23944+P43140). 767

Answer with Ki of COc1cccc(CCCCN2CCN(c3ccccn3)CC2)c1 measured for Adrenergic receptor alpha-1 (Rattus norvegicus, UniProt P15823+P23944+P43140). 467

Answer with Ki of COc1cccc(C2=CCC(N3CCN(c4ccccc4OC)CC3)CC2)c1 (stereo not drawn) measured for Adrenergic receptor alpha-1 (Rattus norvegicus, UniProt P15823+P23944+P43140). 408
